These measurements were taken from ChEMBL document CHEMBL1134851.

test system: THP-1; experiment: Cytotoxicity towards the acute monocytic leukemia cell line (THP-1); format: functional, cell-based; settings: Homo sapiens
pIC50: −log10 of the molar value.

{"MOLECULE": "CC(C)(C)[Si](OC[C@H]1CCC[C@]12CCC[C@@H]1CCC(CO)CN12)(c1ccccc1)c1ccccc1 (stereo partly specified)", "QUALIFIER": "=", "pIC50": 4.49}
{"MOLECULE": "CCOC(=O)C[C@@H]1CCC[C@@]23CCC[C@@H]2CON13", "QUALIFIER": "<", "pIC50": 4.00}
{"MOLECULE": "CC(=O)N1[C@@H](CCO)CCC[C@]12CCC[C@@H]2CO[Si](c1ccccc1)(c1ccccc1)C(C)(C)C", "QUALIFIER": "=", "pIC50": 4.60}
{"MOLECULE": "CC(C)(C)[Si](OC[C@H]1CCC[C@]12CCC[C@@H]1CCCC(=O)N12)(c1ccccc1)c1ccccc1", "QUALIFIER": "=", "pIC50": 4.15}
{"MOLECULE": "CC(C)(C)[Si](OC[C@H]1CCC[C@]12CCC[C@@H]1CCC(CO)C(=O)N12)(c1ccccc1)c1ccccc1 (stereo partly specified)", "QUALIFIER": "=", "pIC50": 4.20}
{"MOLECULE": "CCOC(=O)C[C@H]1CCC[C@]2(CCC[C@@H]2CO[Si](c2ccccc2)(c2ccccc2)C(C)(C)C)N1", "QUALIFIER": "=", "pIC50": 4.40}
